Every entry's value here was drawn from ChEMBL document CHEMBL1139137.

A set of molecules tested on RAC-alpha serine/threonine-protein kinase (Homo sapiens, UniProt P31749), with measured log10(IC50):
Non-standard residues stand in square brackets, D forms with d. Residues, ends and D or L forms follow the SMILES beside them. *: point of attachment. NH(2-(1-naphthyl)ethyl) = c1ccc2c(CCN*)cccc2c1; X4 = c1ccc(CC2CCN(CCN*)CC2)cc1; X1 = CC(=O)Nc1cccc(OCCCN*)c1; 4Abz = Nc1ccc(C(=O)O)cc1; NHBn = c1ccc(CN*)cc1
Annotation: log10 of IC50, µM basis.

// worked examples, log10(IC50) included
{"columns": ["molecule", "log10(IC50)"],
 "data": [
  ["CC(C)[C@H](NC(=O)c1ccc(N(CC(=O)NC(C)(C)C)C(=O)CCCCNC(=N)N)cc1)C(=O)N[C@@H](Cc1ccccc1)C(=O)NCc1ccccc1", 1.76],
  ["CC(=O)NCC(=O)N[C@@H](CCCNC(=N)N)C(=O)N1CCC[C@H]1C(=O)N[C@@H](CCCNC(=N)N)C(=O)N[C@@H](C)C(=O)N[C@@H](C)C(=O)N[C@H](C(=O)N[C@@H](Cc1ccccc1)C(=O)NCc1ccccc1)C(C)C (Ac-GRPRAAVF-NHBn)", 2.64]
]}

Short answer on RAC-alpha serine/threonine-protein kinase (Homo sapiens, UniProt P31749) for CC(=O)NCC(=O)N[C@@H](CCCNC(=N)N)C(=O)N1CCC[C@H]1C(=O)N[C@@H](CCCNC(=N)N)C(=O)N[C@H](C(=O)N[C@H](C(=O)N[C@H](C(=O)N[C@@H](Cc1ccccc1)C(=O)NCc1ccccc1)C(C)C)[C@@H](C)O)[C@@H](C)O (Ac-GRPRTTVF-NHBn) , log10(IC50): 2.38

Short answer on RAC-alpha serine/threonine-protein kinase (Homo sapiens, UniProt P31749) for CC(=O)NCC(=O)N[C@@H](CCCNC(=N)N)C(=O)N1CCC[C@H]1C(=O)N[C@@H](CCCNC(=N)N)C(=O)Nc1ccc(C(=O)N[C@H](C(=O)N[C@@H](Cc2ccccc2)C(=O)NCCc2cccc3ccccc23)C(C)C)cc1 (Ac-GRPR[4Abz]VF-{NH(2-(1-naphthyl)ethyl)}) , log10(IC50): 1.79

Short answer on RAC-alpha serine/threonine-protein kinase (Homo sapiens, UniProt P31749) for CC(=O)NCC(=O)N[C@@H](CCCNC(=N)N)C(=O)N1CCC[C@H]1C(=O)N[C@@H](CCCNC(=N)N)C(=O)Nc1ccc(C(=O)N[C@H](C(=O)N[C@@H](Cc2ccccc2)C(=O)NCCN2CCC(Cc3ccccc3)CC2)C(C)C)cc1 (Ac-GRPR[4Abz]VF-X4) , log10(IC50): 1.97

Short answer on RAC-alpha serine/threonine-protein kinase (Homo sapiens, UniProt P31749) for CC(=O)NCC(=O)N[C@@H](C)C(=O)N1CCC[C@H]1C(=O)N[C@@H](CCCNC(=N)N)C(=O)Nc1ccc(C(=O)N[C@H](C(=O)N[C@@H](Cc2ccccc2)C(=O)NCc2ccccc2)C(C)C)cc1 (Ac-GAPR[4Abz]VF-NHBn) , log10(IC50): 1.61

Short answer on RAC-alpha serine/threonine-protein kinase (Homo sapiens, UniProt P31749) for CC(=O)NCC(=O)N[C@@H](CCCNC(=N)N)C(=O)N1CCC[C@H]1C(=O)N[C@@H](CCCNC(=N)N)C(=O)Nc1ccc(C(=O)N[C@H](C(=O)N[C@@H](Cc2ccccc2)C(=O)NCCCOc2cccc(NC(C)=O)c2)C(C)C)cc1 (Ac-GRPR[4Abz]VF-X1) , log10(IC50): 2.51
